The origin of these recorded values is patent US20020026053A1.

# TEST SYSTEM: Met receptor (EGFR/Met chimeric cells, EMR) (Homo sapiens)
# Construct: expressed in transfected cells; the other entry of the earlier key: EGFR (P00533, Epidermal growth factor receptor)
# Sequence (P08581 with tags, fused parts or gaps): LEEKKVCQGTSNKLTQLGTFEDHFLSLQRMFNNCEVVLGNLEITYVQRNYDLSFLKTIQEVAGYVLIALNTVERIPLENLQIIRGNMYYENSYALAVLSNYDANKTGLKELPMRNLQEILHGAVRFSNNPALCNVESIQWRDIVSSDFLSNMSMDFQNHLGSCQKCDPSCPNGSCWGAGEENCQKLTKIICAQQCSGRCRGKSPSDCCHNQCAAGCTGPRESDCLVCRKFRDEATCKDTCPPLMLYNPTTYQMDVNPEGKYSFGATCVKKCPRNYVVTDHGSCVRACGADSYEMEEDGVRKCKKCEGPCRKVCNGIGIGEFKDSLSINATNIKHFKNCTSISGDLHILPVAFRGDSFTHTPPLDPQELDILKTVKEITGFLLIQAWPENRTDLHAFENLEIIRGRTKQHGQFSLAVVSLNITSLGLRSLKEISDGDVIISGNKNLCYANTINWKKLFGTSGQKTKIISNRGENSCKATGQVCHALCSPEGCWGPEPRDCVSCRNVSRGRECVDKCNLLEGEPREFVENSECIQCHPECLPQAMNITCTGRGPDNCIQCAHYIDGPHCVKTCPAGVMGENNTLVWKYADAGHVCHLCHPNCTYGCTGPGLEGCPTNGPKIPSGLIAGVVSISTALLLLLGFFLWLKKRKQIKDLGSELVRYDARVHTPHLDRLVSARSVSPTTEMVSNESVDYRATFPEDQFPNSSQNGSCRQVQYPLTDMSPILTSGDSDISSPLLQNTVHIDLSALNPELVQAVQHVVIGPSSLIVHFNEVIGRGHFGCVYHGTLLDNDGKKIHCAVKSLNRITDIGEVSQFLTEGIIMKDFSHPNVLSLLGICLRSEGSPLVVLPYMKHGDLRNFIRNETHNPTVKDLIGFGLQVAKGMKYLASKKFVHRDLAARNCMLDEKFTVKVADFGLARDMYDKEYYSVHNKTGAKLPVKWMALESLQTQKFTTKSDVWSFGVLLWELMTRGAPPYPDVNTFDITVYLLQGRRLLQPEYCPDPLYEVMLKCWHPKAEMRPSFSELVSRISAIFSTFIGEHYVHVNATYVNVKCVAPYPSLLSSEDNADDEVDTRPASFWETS
# TEST: Met Autophosphorylation Assay; also: test concentration or dose not given here
# Format: biochemical
VALUE KIND: Met Kinase % Inhibition (P.130) (%)
Report the value in % with no unit label.

What does the data say about its Met Kinase % Inhibition (P.130)? Entry: Cc1ccc(C=C2C(=O)Nc3ccc(Br)c(C)c32)cc1 [10736/C05]
44.6

What does the data say about its Met Kinase % Inhibition (P.130)? Entry: O=C1Nc2ccc(S(=O)(=O)N3CCOCC3)cc2C1=Cc1cccc2ccccc12 [10735/F09]
7.0

What does the data say about its Met Kinase % Inhibition (P.130)? Entry: Cc1c(Br)cc(Br)c2c1C(=Cc1cc(C(C)(C)C)cc(C(C)(C)C)c1O)C(=O)N2 [10723/H11]
76.2

What does the data say about its Met Kinase % Inhibition (P.130)? Entry: Cc1c(Br)cc(Br)c2c1C(=Cc1ccc(Cl)s1)C(=O)N2 [10721/H07]
10.4

What does the data say about its Met Kinase % Inhibition (P.130)? Entry: O=C1Nc2ccc(S(=O)(=O)N3CCOCC3)cc2C1=Cc1cccc(F)c1O [10734/F08]
66.3

What does the data say about its Met Kinase % Inhibition (P.130)? Entry: COC(=O)c1[nH]c(C)c(C=C2C(=O)Nc3c(Br)cc(Br)c(C)c32)c1C(=O)OC [10718/H07]
52.7

What does the data say about its Met Kinase % Inhibition (P.130)? Entry: CNS(=O)(=O)c1ccc2c(c1)C(=Cc1cc(C(F)(F)F)cc(C(F)(F)F)c1)C(=O)N2 [10735/D06]
36.9

What does the data say about its Met Kinase % Inhibition (P.130)? Entry: CNS(=O)(=O)c1ccc2c(c1)C(=Cc1cccc(F)c1)C(=O)N2 [10736/D07]
15.4

What does the data say about its Met Kinase % Inhibition (P.130)? Entry: O=C1Nc2ccc(S(=O)(=O)Nc3ccc(C(F)(F)F)cc3)cc2C1=Cc1ccccc1Cl [10736/E11]
64.4
